Just for reference, PubChem BioAssay (NCI) is where these values come from.

Tested on: SR leukemia
Assay: NCI tumour cell line growth inhibition, 48 h
Would you kindly list TGI for each of these compounds?
One number for each entry, in µM.

Example cases with answers are listed next.
Compound: COC(=O)/C=C\C1C(C(=O)OC)C2(C(=O)OC)CCC1(C(=O)OC)N2 (stereo not given)
TGI (µM): 16.7
--
Compound: CC1(C)[C@@H]2C[C@H]1C(Cc1ccccc1C[C@H]1c3cc(-c4ccccn4)ncc3[C@H]3C[C@@H]1C3(C)C)c1cc(-c3ccccn3)ncc12 (stereo not given in full)
TGI (µM): 1.28

Query string: Look up TGI for this compound: `O=c1c2ccccc2c(C=NCCNCCO)c2oc3ccccc3n12`
Result string: 6.62

---

Would you kindly list TGI for each of these molecules?
Test system: EKVX NSCLC
Assay: NCI tumour cell line growth inhibition, 48 h
Give bare numbers, in µM.

Give measured TGI for every item shown.
1. CNC1=C(Br)C(=O)C2=C(C1=O)C1C3=C(C(=O)C=CC3=O)C2c2ccccc21 (stereo unspecified)
2. COc1ccc(-n2nc(C)c3c(Nc4ccc(NC(=O)Nc5cc(C(F)(F)F)ccc5F)cc4)ncnc32)cc1
3. C=CCCC12CCCC(=O)C1Sc1ccc3ccccc3c12 (stereo unspecified)
4. Nc1nonc1-c1noc(-c2nonc2N)[n+]1[O-]
5. COc1cccc2c1[C@H](OC)[C@]13O[C@@]1(C2=O)[C@H](O)[C@H](C)[C@@](O)(C(=O)[C@@H]1O[C@H]1C)[C@@H]3O
6. O=[N+]([O-])/C=C/c1cccc(F)c1

Result string:
3.7
5.88
64.2
82.8
0.616
7.45

Give measured TGI for every item shown.
1. S=C1SC2(CCCCCC2)NC2=C1CCCCC2
2. COC(=O)c1c(C)cccc1C1CN=NC12Cc1c(C)cccc1C2=O (stereo unspecified)
3. O=C1c2ccccc2C(=O)c2c1c(NCCNCCO)c1cc[nH]c1c2NCCNCCO

Result string:
1. 44.2
2. 79.7
3. 25.5

---

Tested on: SNB-75 CNS
Assay: NCI tumour cell line growth inhibition, 48 h
Quick rule for you: TGI at 30 µM or higher means True, lower means False.

Compound: Nc1nc(N)c2ncn(Cc3c(Cl)cccc3Cl)c2n1
Assay System: SNB-75 CNS
Discrete Label: True

# next compound below
Query string: Hi team, for CCCNCC(O)/C=C/[Si](C)(C)C (stereo unspecified) (tested in a mixture with another compound) , is the recorded TGI at or above 30 µM?
Result string: True

---

Tested on: MDA-MB-435
A correct response names exactly one class from active, inactive

Smiles Structure: Cn1c(-c2c(N)n(Cc3ccc(Cl)cc3)c3nc(C#N)c(C#N)nc23)nc2ccccc21
Assay System: MDA-MB-435
Discrete Label: inactive

Smiles Structure: CCCCCCCCOC(=O)c1cc(O)c(O)c(O)c1
Assay System: MDA-MB-435
Discrete Label: inactive

Smiles Structure: C=C(C)[C@@H]1CC[C@]2(C)[C@H](CC=C3[C@@H]4CC(C)(C)CC[C@]4(C(=O)OC)CC[C@]32C)[C@@]1(C)CC/C(N)=N/O
Assay System: MDA-MB-435
Discrete Label: inactive

Smiles Structure: CCCCn1c(=O)c(/C=C/C(=O)/C=C/c2ccc(O)c(OC)c2)cc2ccc(Cl)cc21
Assay System: MDA-MB-435
Discrete Label: inactive

Smiles Structure: CCN(CCc1ccc(F)cc1)c1ccc(CO)c(Cl)c1
Assay System: MDA-MB-435
Discrete Label: inactive

Smiles Structure: O=C(Oc1ccccc1Cl)c1cccnc1Nc1ccnc(C(F)(F)F)c1
Assay System: MDA-MB-435
Discrete Label: inactive

# next compound below
Query string: Outcome logged for `CN([N-]C(=O)CC(=O)[N-]N(C)C(=S)c1ccccc1)C(=S)c1ccccc1.[Cu+2]` in this assay:
Result string: active
